This collection of values is drawn from paper PMC10235067.

- assay_explanation: Gemcitabine plasma pharmacokinetics in Slc28a1+/+ and Slc28a1-/- mice
- test_parameters: female, mouse, plasma, iv, 50 mg/kg, Tmax, Slc28a1+/+ mice; plasma; single i.v. dFdC 50 mg/kg
test_readout: Tmax (h)
Provide only the numeric value, understood in h.

Query: GET /values?readout=Tmax&item= O=c1ccn([C@@H]2O[C@H](CO)[C@@H](O)C2(F)F)c(=O)[nH]1
Reply: 4

###

- assay_explanation: Gemcitabine plasma pharmacokinetics in Slc28a1+/+ and Slc28a1-/- mice
- test_parameters: female, mouse, plasma, iv, 50 mg/kg, Cmax, Slc28a1+/+ mice; plasma; single i.v. dFdC 50 mg/kg
Where a name gives a salt, the structure may show the parent alone.
For each of the compounds below, state its Cmax.
Provide only the numeric value, understood in ng/mL.

Query: GET /values?readout=Cmax&item= Nc1ccn([C@@H]2O[C@H](CO)[C@@H](O)C2(F)F)c(=O)n1 [dFdC, Gemcitabine hydrochloride, reference compound]
Reply: 3650

Query: GET /values?readout=Cmax&item= O=c1ccn([C@@H]2O[C@H](CO)[C@@H](O)C2(F)F)c(=O)[nH]1
Reply: 453

###

- assay_explanation: Gemcitabine urine pharmacokinetics (renal excretion) in Slc28a1+/+ and Slc28a1-/- mice
- test_parameters: mouse, urine, intravenous, 50 mg/kg, Cp (dFdU), Figure 5 G, H, I; KO mice, 120 Minutes, individual mice
- Description: THU was added to the mouse urine samples upon collection and frozen until analysis. […] Five microliters of the diluted samples were transferred to a 96-well autosampler plate then 10 µL of internal standard mixture was added and mixed. […] The plate was then transferred to the 4 °C autosampler for analysis. The chromatographic separation was performed on a Thermo Accucore aQ 2.6 µm, 100 ×2.1 mm column at 30 °C using a gradient with a 10 µL injection volume. […]
test_readout: concentration at 120 min
Don't forget the unit after the number, please.

Query: GET /values?readout=concentration at 120 min&item= O=c1ccn([C@@H]2O[C@H](CO)[C@@H](O)C2(F)F)c(=O)[nH]1
Reply: 354 ng/mL

###

- assay_explanation: Gemcitabine urine pharmacokinetics (renal excretion) in Slc28a1+/+ and Slc28a1-/- mice
- test_parameters: mouse, urine, intravenous, 50 mg/kg, Cp (Gemcitabine), Figure 5 G, H, I; KO mice, 30 Minutes, individual mice
- Protocol: THU was added to the mouse urine samples upon collection and frozen until analysis. […] Five microliters of the diluted samples were transferred to a 96-well autosampler plate then 10 µL of internal standard mixture was added and mixed. […] The plate was then transferred to the 4 °C autosampler for analysis. The chromatographic separation was performed on a Thermo Accucore aQ 2.6 µm, 100 ×2.1 mm column at 30 °C using a gradient with a 10 µL injection volume. […]
Where a name gives a salt, the structure may show the parent alone.
test_readout: concentration at 30 min (µg/mL)
Provide only the numeric value, understood in µg/mL.

Query: GET /values?readout=concentration at 30 min&item= Nc1ccn([C@@H]2O[C@H](CO)[C@@H](O)C2(F)F)c(=O)n1 [dFdC, Gemcitabine hydrochloride, reference compound]
Reply: 995

###

- assay_explanation: Gemcitabine urine pharmacokinetics (renal excretion) in Slc28a1+/+ and Slc28a1-/- mice
- test_parameters: mouse, urine, intravenous, 50 mg/kg, Cp (Gemcitabine), Figure 5 G, H, I; WT mice, 10 Minutes, individual mice
Where a name gives a salt, the structure may show the parent alone.
test_readout: concentration at 10 min (µg/mL)
Provide only the numeric value, understood in µg/mL.

Query: GET /values?readout=concentration at 10 min&item= Nc1ccn([C@@H]2O[C@H](CO)[C@@H](O)C2(F)F)c(=O)n1 [dFdC, Gemcitabine hydrochloride, reference compound]
Reply: 628
